subject.of.test: RecBCD enzyme subunit RecC (Escherichia coli (strain K12)) + RecBCD enzyme subunit RecB (Escherichia coli (strain K12)) (UniProt P07648+P08394)
Sequence (P07648 whole entry, looked up): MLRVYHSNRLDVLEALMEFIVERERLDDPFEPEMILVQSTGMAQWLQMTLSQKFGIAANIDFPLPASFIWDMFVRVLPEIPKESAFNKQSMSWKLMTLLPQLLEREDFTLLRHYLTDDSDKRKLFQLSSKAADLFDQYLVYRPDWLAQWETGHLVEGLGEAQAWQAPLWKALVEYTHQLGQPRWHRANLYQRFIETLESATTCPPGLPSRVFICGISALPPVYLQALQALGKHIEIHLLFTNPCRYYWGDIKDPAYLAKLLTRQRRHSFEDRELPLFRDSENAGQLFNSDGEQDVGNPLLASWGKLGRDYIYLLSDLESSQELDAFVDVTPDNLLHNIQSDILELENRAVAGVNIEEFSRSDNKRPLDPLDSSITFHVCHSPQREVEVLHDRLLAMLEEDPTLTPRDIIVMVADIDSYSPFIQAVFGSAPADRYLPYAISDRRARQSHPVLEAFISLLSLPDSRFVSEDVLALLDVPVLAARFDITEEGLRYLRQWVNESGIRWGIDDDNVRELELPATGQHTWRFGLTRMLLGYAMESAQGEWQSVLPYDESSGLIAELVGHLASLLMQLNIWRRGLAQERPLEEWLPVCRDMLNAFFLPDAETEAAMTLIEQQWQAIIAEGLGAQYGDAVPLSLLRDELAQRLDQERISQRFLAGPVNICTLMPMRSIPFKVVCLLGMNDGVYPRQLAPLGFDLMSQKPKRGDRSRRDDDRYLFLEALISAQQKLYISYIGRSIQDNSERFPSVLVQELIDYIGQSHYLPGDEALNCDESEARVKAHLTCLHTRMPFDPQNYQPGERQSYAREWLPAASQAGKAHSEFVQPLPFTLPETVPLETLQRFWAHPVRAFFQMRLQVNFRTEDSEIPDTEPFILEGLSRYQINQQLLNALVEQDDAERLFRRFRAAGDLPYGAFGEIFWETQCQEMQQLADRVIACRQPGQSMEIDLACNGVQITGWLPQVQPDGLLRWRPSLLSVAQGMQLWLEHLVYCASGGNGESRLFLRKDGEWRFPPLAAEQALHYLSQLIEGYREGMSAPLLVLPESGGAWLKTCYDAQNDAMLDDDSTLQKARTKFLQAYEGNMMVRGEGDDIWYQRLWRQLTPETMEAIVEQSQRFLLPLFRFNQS
Sequence (P08394 whole entry, looked up): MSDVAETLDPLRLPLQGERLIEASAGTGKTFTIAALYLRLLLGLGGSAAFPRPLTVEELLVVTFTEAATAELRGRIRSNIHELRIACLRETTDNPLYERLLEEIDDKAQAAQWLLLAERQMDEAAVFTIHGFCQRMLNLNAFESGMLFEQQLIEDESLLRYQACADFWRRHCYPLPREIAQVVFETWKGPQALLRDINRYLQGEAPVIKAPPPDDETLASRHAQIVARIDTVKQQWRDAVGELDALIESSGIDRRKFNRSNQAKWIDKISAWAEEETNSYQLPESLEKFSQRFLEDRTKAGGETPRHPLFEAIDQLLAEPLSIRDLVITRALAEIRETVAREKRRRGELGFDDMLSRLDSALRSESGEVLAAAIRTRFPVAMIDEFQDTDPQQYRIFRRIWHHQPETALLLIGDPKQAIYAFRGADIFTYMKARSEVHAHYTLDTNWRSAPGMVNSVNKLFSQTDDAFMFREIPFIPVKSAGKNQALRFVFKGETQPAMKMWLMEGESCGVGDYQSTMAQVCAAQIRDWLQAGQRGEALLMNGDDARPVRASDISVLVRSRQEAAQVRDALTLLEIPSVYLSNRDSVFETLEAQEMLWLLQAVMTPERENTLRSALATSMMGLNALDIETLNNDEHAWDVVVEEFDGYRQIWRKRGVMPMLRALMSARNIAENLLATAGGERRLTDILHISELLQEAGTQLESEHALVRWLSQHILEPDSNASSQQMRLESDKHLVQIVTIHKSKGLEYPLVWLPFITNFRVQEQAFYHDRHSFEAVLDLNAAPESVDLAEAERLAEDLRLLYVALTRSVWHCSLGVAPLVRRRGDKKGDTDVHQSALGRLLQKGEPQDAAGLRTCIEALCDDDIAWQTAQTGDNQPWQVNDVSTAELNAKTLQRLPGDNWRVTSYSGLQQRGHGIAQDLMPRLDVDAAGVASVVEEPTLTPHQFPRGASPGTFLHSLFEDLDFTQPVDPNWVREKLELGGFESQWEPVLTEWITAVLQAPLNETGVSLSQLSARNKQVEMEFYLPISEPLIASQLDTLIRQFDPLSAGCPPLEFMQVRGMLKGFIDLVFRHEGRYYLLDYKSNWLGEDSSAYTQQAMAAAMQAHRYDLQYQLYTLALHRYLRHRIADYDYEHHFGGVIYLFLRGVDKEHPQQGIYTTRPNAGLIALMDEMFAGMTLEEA
protocol.summary: RecBCD helicase and Chi cutting inhibitors, late-stage follow-up, counter-screen for AddAB inhibitor project, biochemical, radioactive gel readout, single concentration (AID 623937)
assay.conditions: purified RecBCD, 32P DNA gel autoradiography, at 50 µM
Active and inactive are the calls of the source.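 Rule for the calls: active = Chi band cutting by RecBCD reduced more than twofold versus the solvent-only control; inactive = reduction of twofold or less versus solvent-only control.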
The categories you may choose from are 1 (yes) (active), 0 (no) (inactive)

Enquiry: Recorded test outcome, item CCn1cc(C(=O)O)c(=O)c2cnc(N3CCN(C(=S)Nc4ccc(F)cc4)CC3)nc21
Return: 1 (yes)

Enquiry: Recorded test outcome, item CCn1cc(C(=O)O)c(=O)c2cnc(N3CCNCC3)nc21
Return: 0 (no)
